Here the recorded inhibition at 33 µM is given for each entry.
biological target: HCV-NS5b (Hepatitis C virus genotype 1b, UniProt Q9WMX2); construct: (His)6 (C); made in house; host or cells: XL-1 cells (E. coli), IPTG-inducible plasmid, nickel-NTA purification; experiment: HCV-NS5b enzyme assay (incorporation of radiolabeled UTP); format: biochemical; conditions: enzyme inhibition at compound concentration of 33 uM
Write it as a number; the unit % goes unstated.

[[record]]
substance_smiles = "O=C(O)c1ccc2c(c1)nc(-c1ccc3nc(CCn4cccn4)ccc3c1)n2C1CCCCC1"
system = "HCV-NS5b (Hepatitis C virus genotype 1b, UniProt Q9WMX2)"
assay_readout = "inhibition at 33 µM"
unit_string = "%"
observed_value = 97.3


inhibition at 33 µM for NC(=O)c1cc(-c2ccc3cc(-c4nc5cc(C(=O)O)ccc5n4C4CCCCC4)ccc3n2)ccc1O ?
97.6

inhibition at 33 µM for CC(C)C[C@H](NC(=O)c1ccc2c(c1)nc(-c1ccc3nc(-c4ccccc4)cnc3c1)n2C1CCCCC1)C(=O)O ?
93.2

inhibition at 33 µM for Cc1cc(-c2nc3cc(C(=O)O)ccc3n2C2CCCCC2)cc2ccc(-c3ccccc3-c3ccc(Cl)cc3)nc12 ?
97.8

====

Here the recorded inhibition at 100 µM is given for each entry.
biological target: HCV-NS5b (Hepatitis C virus genotype 1b, UniProt Q9WMX2); construct: (His)6 (C); made in house; host or cells: XL-1 cells (E. coli), IPTG-inducible plasmid, nickel-NTA purification; assay: HCV-NS5b enzyme assay (incorporation of radiolabeled UTP); format: biochemical; details: read-out: % inh@100, enzyme inhibition at compound concentration of 100 uM
Write it as a number; the unit % goes unstated.

Here is how some compounds turned out for inhibition at 100 µM.
[[record]]
compound = "O=C(O)c1ccc2c(c1)nc(-c1ccc3nc(-c4cccc5ccccc45)ccc3c1)n2C1CCCCC1 [Compound 357]"
system = "HCV-NS5b (Hepatitis C virus genotype 1b, UniProt Q9WMX2)"
observed_value = 101

[[record]]
compound = "Cc1cc(-c2ccccc2Br)nc2ccc(-c3nc4cc(C(=O)O)ccc4n3C3CCCCC3)cc12 [Compound 471]"
system = "HCV-NS5b (Hepatitis C virus genotype 1b, UniProt Q9WMX2)"
observed_value = 99.8

[[record]]
compound = "COc1ccc(-c2ccccc2C)c(-c2ccc3cc(-c4nc5cc(C(=O)O)ccc5n4C4CCCCC4)ccc3n2)c1 [Compound 548]"
system = "HCV-NS5b (Hepatitis C virus genotype 1b, UniProt Q9WMX2)"
observed_value = 101

[[record]]
compound = "O=C(O)[C@@H]1Cc2ccccc2CN1C(=O)c1ccc2c(c1)nc(-c1ccc3nc(-c4ccccc4)cnc3c1)n2C1CCCCC1 [Compound 520]"
system = "HCV-NS5b (Hepatitis C virus genotype 1b, UniProt Q9WMX2)"
observed_value = 98.9

[[record]]
compound = "CC(=O)Nc1ccc(-c2ccc3cc(-c4nc5cc(C(=O)O)ccc5n4C4CCCCC4)ccc3n2)cc1 [Compound 501]"
system = "HCV-NS5b (Hepatitis C virus genotype 1b, UniProt Q9WMX2)"
observed_value = 96.8

[[record]]
compound = "O=C(O)c1ccc2c(c1)nc(-c1ccc3[nH]c(-c4ccccc4)cc(=O)c3c1)n2C1CCCCC1 [Compound 373]"
system = "HCV-NS5b (Hepatitis C virus genotype 1b, UniProt Q9WMX2)"
observed_value = 83.8


Now turn to the next compound.
Lab note: need inhibition at 100 µM with HCV-NS5b (Hepatitis C virus genotype 1b, UniProt Q9WMX2) for entry O=C(O)c1cnc2c(c1)nc(-c1ccc3nc(-c4cc(C(=O)N5CCCC5)ccc4-c4ccc(Cl)cc4)ccc3c1)n2C1CCCCC1 [Compound 539] , please look it up.
102
